The entries below are paired with their reported IC50.
- TEST: Inhibition of Mycobacterium tuberculosis leucyl-tRNA synthetase assessed as reduction of [14C]-L-leucine ligation to tRNA incubated for 5 mins by scintillation counting method in presence of ATP
MEASUREMENT NAME: IC50

>>> df
                               query_smiles  reading
0  O=[N+]([O-])c1ccc(-c2csc(N/N=C/c3cc(Br)cc(Br)c3O)n2)cc1  19.3 µM
1  COc1cc(/C=N/Nc2nc(-c3ccccc3)cs2)cc(Br)c1O  > 20 µM
2            COc1cc(/C=N/Nc2nccs2)cc(Br)c1O  > 20 µM
